Test system: SF-268 CNS
Assay: NCI tumour cell line growth inhibition, 48 h
Entries and their TGI values follow.
attribute measured: TGI

compound=O=C(Nc1ccc(Cl)cc1)c1cc(S(=O)(=O)Nc2n[nH]c(=O)n2-c2ccccc2)c(S)cc1Cl attribute_measured=TGI endpoint_result="> 100 µM"
compound=CCCCNC1=C(C(=O)OCC)/C(=N/NC(=O)c2ccccc2O)CO1 attribute_measured=TGI endpoint_result="> 100 µM"
compound=CC(=O)c1sc2[n+](c1C)C(=O)/C(=C\c1ccccc1Cl)S2 attribute_measured=TGI endpoint_result="64.5 µM"
compound=Cc1ccc(S(=O)(=O)Nn2c(O)c(C#N)c(-c3ccc([N+](=O)[O-])cc3)c(C#N)c2=O)cc1 attribute_measured=TGI endpoint_result="> 100 µM"
compound=COc1cc(/C=N/NC2=NCCN2)ccc1O attribute_measured=TGI endpoint_result="> 100 µM"
compound="CC(N1CCOCC1)C(O)(c1ccccc1)c1ccccn1 (centres undefined)" attribute_measured=TGI endpoint_result="> 100 µM"
compound=Cc1ccc(/C=C2/N=C(N/N=C\c3ccccc3)NC2=O)cc1 attribute_measured=TGI endpoint_result="> 100 µM"
compound="COc1ccc(C2=NC(c3ccc(Cl)cc3)C(c3ccc(Cl)cc3)N2C(=O)N2CCNC(=O)C2)c(OC(C)C)c1 (centres undefined)" attribute_measured=TGI endpoint_result="3.97 µM"
compound=C/C(=N\NS(=O)(=O)c1ccc([N+](=O)[O-])cc1)c1ccc[n+]([O-])n1 attribute_measured=TGI endpoint_result="7.65 µM"
